Grouping key: melting point. Bins: bin 1 = under 80 °C, bin 2 = from 80 °C up to 200 °C, bin 3 = 200 °C and over

{"COMPOUND": "Nc1ccc(O)c2c1C(=O)c1ccccc1C2=O", "GROUP LABEL": "bin 3"}
{"COMPOUND": "CC(C)c1ccncc1", "GROUP LABEL": "bin 1"}
{"COMPOUND": "CC(C)COC(=O)c1ccc(O)cc1", "GROUP LABEL": "bin 1"}
{"COMPOUND": "CC(=O)/C(=C\\N)c1ccccc1", "GROUP LABEL": "bin 2"}
{"COMPOUND": "CC(C(=O)O)c1ccc(-c2ccccc2)c(F)c1 (configuration not stated)", "GROUP LABEL": "bin 2"}
{"COMPOUND": "CC1(C)OC(=O)C(=Cc2ccc(-c3ccc(Cl)cc3)o2)C(=O)O1", "GROUP LABEL": "bin 2"}
{"COMPOUND": "OCc1ccc(O)cc1", "GROUP LABEL": "bin 2"}
{"COMPOUND": "O=S1CCC1", "GROUP LABEL": "bin 1"}
{"COMPOUND": "N#CCC(=O)c1cccc(C(F)(F)F)c1", "GROUP LABEL": "bin 1"}
{"COMPOUND": "O=c1ccc(=O)[nH][nH]1", "GROUP LABEL": "bin 3"}
{"COMPOUND": "O=c1c(C=Cc2nc3ccccc3[nH]2)coc2ccccc12", "GROUP LABEL": "bin 3"}
{"COMPOUND": "CCNC(=O)NC(=O)C(C#N)=NOC", "GROUP LABEL": "bin 2"}
{"COMPOUND": "Nc1cc([N+](=O)[O-])ccc1F", "GROUP LABEL": "bin 2"}
{"COMPOUND": "CCCCCCCCSC(=O)Oc1cc(Cl)nnc1-c1ccccc1", "GROUP LABEL": "bin 1"}
{"COMPOUND": "CC1=N[C@]2(c3ccccc3)Oc3c(c4ccccc4c4ccccc34)O[C@@H]2O1", "GROUP LABEL": "bin 2"}
{"COMPOUND": "O=C1CCCO1", "GROUP LABEL": "bin 1"}

---

Items are presented alongside their recorded melting point.

{"MOLECULE": "C=CCOC(Cn1ccnc1)c1ccc(Cl)cc1Cl (configuration not stated)", "melting point [°C]": 52.7}
{"MOLECULE": "O=C1C(c2ccccc2)=[N+]([O-])c2cc([N+](=O)[O-])c(/C=C/c3ccccc3)cc21", "melting point [°C]": 233}
{"MOLECULE": "CN(C)CCN(C)CCN(C)C", "melting point [°C]": 18}
{"MOLECULE": "O=C(O)c1nccnc1C(=O)O", "melting point [°C]": 188}
{"MOLECULE": "O=[N+]([O-])c1cc(Cl)c(Cl)cc1Nc1ccccn1", "melting point [°C]": 156}
{"MOLECULE": "COC1(C)CC(c2ccccc2)c2c(c3ccccc3oc2=O)O1 (configuration not stated)", "melting point [°C]": 166}
{"MOLECULE": "NC(=O)c1ccc(F)cc1C(F)(F)F", "melting point [°C]": 136}
{"MOLECULE": "Fc1ccc(NC(=S)Nc2cc(Cl)cc(Cl)c2)cc1", "melting point [°C]": 164}
{"MOLECULE": "C#CC1(O)CCC2C3CCc4cc(O)ccc4C3CCC21C (configuration not stated)", "melting point [°C]": 141}
